test system: M. tuberculosis H37Ra; test: MIC against M. tuberculosis H37Ra, micro broth dilution in microtiter plates; conditions: Mycobacterium tuberculosis, H37RA, Table 4; M. tuberculosis H37Ra, MIC90
Measured metric: MIC

# example entries with known answers
>>> print(df.to_string())
                                   compound  value_reported
0  O=C(NCc1ccc(N2CCC(Cc3ccccc3)CC2)cc1)c1ccc([N+](=O)[O-])o1 [Compound 67]     < 0.1 µg/mL
1  O=C(NCc1cccc(N2CCN(Cc3ccccc3)CC2)c1)c1ccc([N+](=O)[O-])o1 [Compound 69]     < 0.1 µg/mL

// next entry
Record request: MIC value, item O=C(Nc1ccc(N2CCN(c3ccccn3)CC2)cc1)c1ccc([N+](=O)[O-])o1 [Compound 58] 0.4 to 0.8 µg/mL

Each recorded value in this set is attributed to patent US20050026968A1.
